Assay: Apparent permeability across apical to basolateral side in human Caco2 cells at 10 uM after 15 to 90 mins by LC-ESI-MS/MS analysis
Type: ADME, cell-based
Condition Summary: Caco-2
Quantity: Papp A→B at 10 µM (×10⁻⁶ cm/s)
Report as a plain number; the unit ×10⁻⁶ cm/s is understood.

Ask: Which Papp A→B at 10 µM is reported for this molecule? "CNC(=O)C(=O)NCCCC/C=C\CCCCCCCCCc1nnn[nH]1"
Result: 10

Ask: Which Papp A→B at 10 µM is reported for this molecule? "C[C@]12CC[C@H]3[C@@H](CCC4=CC(=O)CC[C@@]43C)[C@@H]1CC[C@@H]2O"
Result: 32.5

Ask: Which Papp A→B at 10 µM is reported for this molecule? "CNC(=O)C(=O)NCCCC/C=C\CCCCCCCOCC(=O)O"
Result: 28.2

Ask: Which Papp A→B at 10 µM is reported for this molecule? "CC[C@H]1OC(=O)[C@H](C)[C@@H](O[C@H]2C[C@@](C)(OC)[C@@H](O)[C@H](C)O2)[C@H](C)[C@@H](O[C@@H]2O[C@H](C)C[C@H](N(C)C)[C@H]2O)[C@](C)(O)C[C@@H](C)C(=O)[C@H](C)[C@@H](O)[C@]1(C)O"
Result: 0.35

The record that follows has no Papp A→B at 10 µM shown yet.
Ask: Which Papp A→B at 10 µM is reported for this molecule? "CNC(=O)C(=O)NCCCC/C=C\CCCCCCCCCC(=O)O"
Result: 5.3

----------
System: Cytochrome P450 2C9 (Homo sapiens, UniProt P11712)
Sequence (P11712 whole entry): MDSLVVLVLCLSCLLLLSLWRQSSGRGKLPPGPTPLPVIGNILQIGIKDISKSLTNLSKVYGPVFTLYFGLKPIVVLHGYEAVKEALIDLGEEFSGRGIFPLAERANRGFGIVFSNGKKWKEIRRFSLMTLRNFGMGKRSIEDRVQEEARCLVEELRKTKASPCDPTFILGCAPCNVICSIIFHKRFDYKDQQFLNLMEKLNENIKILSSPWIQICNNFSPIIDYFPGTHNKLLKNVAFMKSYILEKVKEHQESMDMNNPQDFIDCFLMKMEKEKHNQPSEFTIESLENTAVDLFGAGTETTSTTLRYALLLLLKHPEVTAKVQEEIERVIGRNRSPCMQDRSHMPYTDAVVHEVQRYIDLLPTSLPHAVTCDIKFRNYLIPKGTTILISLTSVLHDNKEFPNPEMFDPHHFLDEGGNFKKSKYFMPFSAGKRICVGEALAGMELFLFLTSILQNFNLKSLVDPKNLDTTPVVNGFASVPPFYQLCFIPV
pIC50: −log10 of the molar value.
Quantity: pIC50

Ask: What measured pIC50 is associated with "CNC(=O)C(=O)NCCCC/C=C\CCCCCCCOCC(=O)O" on Cytochrome P450 2C9 (Homo sapiens, UniProt P11712)?
Result: < 4.30

----------
Assay: Half life in human hepatocytes at 1 uM measured up to 180 mins by LC-ESI-MS/MS analysis
Format: ADME, cell-based, Hepatocyte
Quantity: half-life at 1 µM (h)
Report as a plain number; the unit h is understood.

Ask: Which half-life at 1 µM is reported for this molecule? "CNC(=O)C(=O)NCCCC/C=C\CCCCCCCOCC(=O)O"
Result: 5.83

----------
Assay: Oral bioavailability in Sprague-Dawley (RjHan:SD) rat at 3 mg/kg administered via gavage by LC-MS analysis
Type: ADME, organism-based
Condition Summary: in vivo
In this section, each of the compounds is paired with its reported bioavailability.
Report as a plain number; the unit % is understood.

Ask: Which bioavailability is reported for this compound? "CNC(=O)C(=O)NCCCC/C=C\CCCCCCCCCc1nnn[nH]1"
Result: 35

The record that follows has no bioavailability shown yet.
Ask: Which bioavailability is reported for this compound? "CNC(=O)C(=O)NCCCC/C=C\CCCCCCCOCC(=O)O"
Result: 100

----------
In this section, each of the molecules is paired with its reported half-life.
Assay: Elimination half life in Sprague-Dawley (RjHan:SD) rat at 3 mg/kg, po administered via gavage by LC-MS analysis
Assay type: ADME, organism-based
Condition Summary: in vivo, read-out: beta t1/2 (converted)
Report as a plain number; the unit h is understood.

Ask: Which half-life is reported for this molecule? "CNC(=O)C(=O)NCCCC/C=C\CCCCCCCCCc1nnn[nH]1"
Result: 3.6

The record that follows has no half-life shown yet.
Ask: Which half-life is reported for this molecule? "CNC(=O)C(=O)NCCCC/C=C\CCCCCCCOCC(=O)O"
Result: 9.6

----------
Assay: Intrinsic clearance in human hepatocytes assessed per million cells at 1 uM measured up to 180 mins by LC-ESI-MS/MS analysis
Format: ADME, cell-based, Hepatocyte
Condition Summary: read-out: CLH
Quantity: hepatocyte CLint at 1 µM (µL/min/1e6 cells)
Report as a plain number; the unit µL/min/1e6 cells is understood.

// known answers, use as guide
Ask: Which hepatocyte CLint at 1 µM is reported for this compound? "CNC(=O)C(=O)NCCCC/C=C\CCCCCCCCCc1nnn[nH]1"
Result: 4.77

Ask: Which hepatocyte CLint at 1 µM is reported for this compound? "CCOc1ccc2ccc(=O)oc2c1"
Result: 43.2

Ask: Which hepatocyte CLint at 1 µM is reported for this compound? "CNC(=O)C(=O)NCCCC/C=C\CCCCCCCOCC(=O)O"
Result: 2.48

The record that follows has no hepatocyte CLint at 1 µM shown yet.
Ask: Which hepatocyte CLint at 1 µM is reported for this compound? "CNC(=O)C(=O)NCCCC/C=C\CCCCCCCCCC(=O)O"
Result: 16.5

----------
System: Bifunctional epoxide hydrolase 2 (Homo sapiens)
Condition Summary: Sf21, at 1 µM
Description: Inhibition of N-terminal His-tagged recombinant human soluble epoxide hydrolase (2 to 555 residues) expressed in Sf21 insect cells at 1 uM using as 14,15-EET as substrate after 10 mins by reversed-phase HPLC assay relative to control
In this section, each of the molecules is paired with its reported inhibition.
Report as a plain number; the unit % is understood.

// known answers, use as guide
Ask: Which inhibition is reported for this molecule? "CNC(=O)C(=O)NCCCC/C=C\CCCCCCCCCC(=O)NS(=O)(=O)c1ccccc1"
Result: -3.2

Ask: Which inhibition is reported for this molecule? "CCNC(=O)NCCCC/C=C\CCCCCCCCCC(=O)O"
Result: 4.7

Ask: Which inhibition is reported for this molecule? "CNC(=O)C(=O)NCCCC/C=C\CCCCCCCCCOc1cccc2sc(NC(C)=O)nc12"
Result: 17

Further cases:
Ask: Which inhibition is reported for this molecule? "CCNC(=O)NCCCC/C=C\CCCCCCCOCC(=O)O"
Result: 3.6

Ask: Which inhibition is reported for this molecule? "CNC(=O)C(=O)NCCCC/C=C\CCCCCCCCCP(=O)(OCOC(=O)C(C)(C)C)OCOC(=O)C(C)(C)C"
Result: 5.1

Ask: Which inhibition is reported for this molecule? CNC(=O)C(=O)NCCCC/C=C\CCCCCCCCCC1=NO[S+]([O-])N1 (configuration not stated)
Result: -0.2

Ask: Which inhibition is reported for this molecule? "CNC(=O)C(=O)NCCCC/C=C\CCCCCCCCCc1noc(=O)[nH]1"
Result: -5

----------
System: Cytochrome P450 3A4 (Homo sapiens, UniProt P08684)
Sequence (P08684 whole entry): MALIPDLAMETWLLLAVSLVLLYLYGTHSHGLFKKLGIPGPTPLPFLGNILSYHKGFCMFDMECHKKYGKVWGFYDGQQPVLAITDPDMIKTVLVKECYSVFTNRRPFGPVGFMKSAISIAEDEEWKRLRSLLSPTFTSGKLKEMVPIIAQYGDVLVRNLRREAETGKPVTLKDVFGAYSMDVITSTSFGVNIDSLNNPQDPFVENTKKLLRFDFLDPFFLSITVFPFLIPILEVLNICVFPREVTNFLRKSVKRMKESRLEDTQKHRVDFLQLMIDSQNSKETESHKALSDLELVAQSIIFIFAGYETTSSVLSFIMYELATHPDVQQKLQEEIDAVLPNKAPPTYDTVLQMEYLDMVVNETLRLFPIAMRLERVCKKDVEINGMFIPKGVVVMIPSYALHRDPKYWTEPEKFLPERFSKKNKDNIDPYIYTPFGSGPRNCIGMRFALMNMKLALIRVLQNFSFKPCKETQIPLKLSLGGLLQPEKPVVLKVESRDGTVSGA
Assay: Inhibition of recombinant human CYP3A4 expressed in supersomes using 7-benzyloxyquinoline as substrate by fluorescence method
pIC50: −log10 of the molar value.
In this section, each of the compounds is paired with its reported pIC50.

// known answers, use as guide
Ask: What measured pIC50 is associated with "CNC(=O)C(=O)NCCCC/C=C\CCCCCCCOCC(=O)O" on Cytochrome P450 3A4 (Homo sapiens, UniProt P08684)?
Result: < 4.30

Ask: What measured pIC50 is associated with "CNC(=O)C(=O)NCCCC/C=C\CCCCCCCCCC(=O)O" on Cytochrome P450 3A4 (Homo sapiens, UniProt P08684)?
Result: < 4.30

Further cases:
Ask: What measured pIC50 is associated with "CNC(=O)C(=O)NCCCC/C=C\CCCCCCCCCc1nnn[nH]1" on Cytochrome P450 3A4 (Homo sapiens, UniProt P08684)?
Result: 5.33

----------
System: Cytochrome P450 2C19 (Homo sapiens, UniProt P33261)
Sequence (P33261 whole entry): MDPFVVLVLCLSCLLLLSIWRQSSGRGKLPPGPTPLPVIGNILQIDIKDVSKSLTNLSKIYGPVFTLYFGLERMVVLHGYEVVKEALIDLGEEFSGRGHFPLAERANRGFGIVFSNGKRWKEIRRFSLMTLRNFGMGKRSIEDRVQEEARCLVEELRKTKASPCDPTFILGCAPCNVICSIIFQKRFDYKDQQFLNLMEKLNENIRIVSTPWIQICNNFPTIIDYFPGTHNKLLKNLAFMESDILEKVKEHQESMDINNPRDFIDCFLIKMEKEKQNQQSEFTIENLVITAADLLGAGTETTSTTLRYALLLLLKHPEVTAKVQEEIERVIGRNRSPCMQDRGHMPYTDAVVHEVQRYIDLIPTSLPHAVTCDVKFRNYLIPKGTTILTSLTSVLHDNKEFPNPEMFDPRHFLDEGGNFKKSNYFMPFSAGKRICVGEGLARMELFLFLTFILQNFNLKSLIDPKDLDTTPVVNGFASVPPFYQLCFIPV
Quantity: pIC50
Scale note: pIC50 = -log10(concentration in M).

Ask: Which pIC50 is reported for this compound? "CNC(=O)C(=O)NCCCC/C=C\CCCCCCCCCc1nnn[nH]1"
Result: 6.68

----------
System: Cytochrome P450 2J2 (Homo sapiens)
Sequence (P51589 whole entry): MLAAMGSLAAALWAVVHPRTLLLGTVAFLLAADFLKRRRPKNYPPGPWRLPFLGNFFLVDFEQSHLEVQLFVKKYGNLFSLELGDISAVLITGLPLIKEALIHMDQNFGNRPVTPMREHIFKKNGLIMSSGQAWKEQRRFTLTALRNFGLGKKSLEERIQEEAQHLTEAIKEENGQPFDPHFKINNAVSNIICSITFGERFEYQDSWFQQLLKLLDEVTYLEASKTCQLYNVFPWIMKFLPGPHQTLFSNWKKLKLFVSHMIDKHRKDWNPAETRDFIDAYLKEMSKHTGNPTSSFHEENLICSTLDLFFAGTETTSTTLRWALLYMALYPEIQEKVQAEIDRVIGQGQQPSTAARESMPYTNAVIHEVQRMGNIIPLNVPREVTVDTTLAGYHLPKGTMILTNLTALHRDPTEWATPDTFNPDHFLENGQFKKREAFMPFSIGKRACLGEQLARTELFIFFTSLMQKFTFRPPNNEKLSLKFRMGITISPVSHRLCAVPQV
Assay: Inhibition of recombinant human CYP2J2 expressed in baculovirus infected insect cells co-expressing NADPH-CYP reductase and cytochrome b5 assessed as reduction in CYP2J2-mediated EPA epoxidation by measuring sum of EEQ and DiHETEs level at 1 to 50 uM using EPA as substrate preincubated for 5 mins followed by NADPH addition and measured after 15 mins by LCMS/MS analysis
Type: ADME
Condition Summary: recombinant enzyme, 0.25 h
Quantity: inhibition (INH)

// known answers, use as guide
Ask: Which inhibition (INH) is reported for this molecule? "CNC(=O)C(=O)NCCCC/C=C\CCCCCCCCCC(=O)O"
Result: Not Active

Ask: Which inhibition (INH) is reported for this molecule? CC(C)(C)c1ccc(C(O)CCCN2CCC(C(O)(c3ccccc3)c3ccccc3)CC2)cc1 (stereo unspecified)
Result: Active

Ask: Which inhibition (INH) is reported for this molecule? "CNC(=O)C(=O)NCCCC/C=C\CCCCCCCCCc1nnn[nH]1"
Result: Active

Ask: Which inhibition (INH) is reported for this molecule? "CCCCc1oc2ccccc2c1C(=O)c1cc(I)c(OCCN(CC)CC)c(I)c1"
Result: Active

Ask: Which inhibition (INH) is reported for this molecule? "CNC(=O)C(=O)NCCCC/C=C\CCCCCCCOCC(=O)O"
Result: Not Active

Further cases:
Ask: Which inhibition (INH) is reported for this molecule? "CCCCc1oc2ccc(NS(C)(=O)=O)cc2c1C(=O)c1ccc(OCCCN(CCCC)CCCC)cc1"
Result: Active
